Tested on: NCI-H2122 cells
assay_method_text: NCI-H2122 CTG proliferation assay (120 h) (NSCLC, G12C)
Format: cell-based
test_parameters: Homo sapiens
reported_endpoint: IC50

Quick check: IC50 of C[C@H](Oc1cc(N2Cc3cnn(C)c3C2)nc(-c2noc3c2CCC[C@@]32CCCc3sc(N)c(C#N)c32)n1)[C@@H]1CCCN1C ?
3.39 µM

Quick check: IC50 of C[C@H](Oc1cc(N2CCC[C@@H](O)C2)nc(-c2noc3c2CCC[C@@]32CCCc3sc(N)c(C#N)c32)n1)[C@@H]1CCCN1C ?
1.35 µM

Quick check: IC50 of C[C@H]1CN(C)CCCN1c1cc(N2CCN(C)CC2)nc(-c2onc3c2CCC[C@@]32CCCc3sc(N)c(C#N)c32)n1 ?
3.46 µM

----------
Tested on: KRAS G12C-dependent Ba/F3 cells
assay_method_text: Ba/F3 proliferation assay, KRAS G12C
Type: cell-based
test_parameters: Mus musculus, BaF3, 72 h, AlamarBlue
I'd appreciate it if you could supply pIC50 values for the items below.
// pIC50 here means minus log10 of the molar concentration (mol/L)

So what pIC50 did C[C@H](Oc1cc(-n2ccc(C(=O)N[C@@H]3CCOC3)n2)nc(-c2onc3c2CCC[C@@]32CCCc3sc(N)c(C#N)c32)n1)[C@@H]1CCCN1C get with KRAS G12C-dependent Ba/F3 cells?
8.52

So what pIC50 did C[C@H](Oc1cc(-n2ccc(C(=O)N3CCCC3)n2)nc(-c2noc3c2CCC[C@@]32CCCc3sc(N)c(C#N)c32)n1)[C@@H]1CCCN1C get with KRAS G12C-dependent Ba/F3 cells?
8.30

So what pIC50 did C[C@H](Oc1cc(-c2ccn(C[C@@H]3CCCO3)n2)nc(-c2noc3c2CCC[C@@]32CCCc3sc(N)c(C#N)c32)n1)[C@@H]1CCCN1C get with KRAS G12C-dependent Ba/F3 cells?
7.43

----------
Test system: AsPC-1 cells
assay_method_text: AsPC-1 CTG proliferation assay (120 h) (pancreatic cancer, G12D)
Type: cell-based
test_parameters: Homo sapiens, ASPC1
I'd appreciate it if you could supply pIC50 values for the items below.
// pIC50 here means minus log10 of the molar concentration (mol/L)

So what pIC50 did CNC1CCN(c2cc(O[C@@H](C)[C@@H]3CCCN3C)nc(-c3noc4c3CCC[C@@]43CCCc4sc(N)c(C#N)c43)n2)CC1 get with AsPC-1 cells?
5.45

So what pIC50 did C[C@H](Oc1cc(-c2cccc(CO)c2)nc(-c2noc3c2CCC[C@@]32CCCc3sc(N)c(C#N)c32)n1)[C@@H]1CCCN1C get with AsPC-1 cells?
5.63

So what pIC50 did C[C@H](Oc1cc(N2CCN(C)C3(CC3)C2)nc(-c2onc3c2CCC[C@@]32CCCc3sc(N)c(C#N)c32)n1)[C@@H]1CCCN1C get with AsPC-1 cells?
6.53

So what pIC50 did COCCNC(=O)c1ccn(-c2cc(O[C@@H](C)[C@@H]3CCCN3C)nc(-c3noc4c3CCC[C@@]43CCCc4sc(N)c(C#N)c43)n2)n1 get with AsPC-1 cells?
6.55

So what pIC50 did C[C@H](NC(=O)c1ccn(-c2cc(O[C@@H](C)[C@@H]3CCCN3C)nc(-c3noc4c3CCC[C@@]43CCCc4sc(N)c(C#N)c43)n2)n1)c1ccccn1 get with AsPC-1 cells?
6.37

So what pIC50 did C[C@H]1CNCCCN1c1cc(-n2ccnc2)nc(-c2noc3c2CCC[C@@]32CCCc3sc(N)c(C#N)c32)n1 get with AsPC-1 cells?
4.99

So what pIC50 did C[C@H](Oc1cc(-c2ccn(C)n2)nc(-c2noc3c2CCC[C@@]32CCCc3sc(N)c(C#N)c32)n1)[C@@H]1CCCN1C get with AsPC-1 cells?
5.65

So what pIC50 did C[C@H](Oc1cc(N2CCN(C)C3(CC3)C2)nc(-c2noc3c2CCC[C@@]32CCCc3sc(N)c(C#N)c32)n1)[C@@H]1C[C@@H](F)CN1C get with AsPC-1 cells?
6.59
